# Test method notes: Pharmacokinetic study in dogs
# Assay type: in vivo, beagle dogs
# Condition: dog, in vivo, po; beagle dogs, gavage 20 mg/kg, suspension in 0.5% HPMC K4M
Quantity: Cmax (ng/mL)
Respond numerically; units are ng/mL and should not be typed.

So for C[C@@H]1COC2NC=NC=C2c2cc(C(=O)Nc3ccc(OC(F)(F)Cl)cc3)cc3nc(C(F)F)n1c23 (stereo partly shown) [Crystal form A of p-tosylate] , the logged Cmax turned out to be 5720

###

# Test method notes: Pharmacokinetic study in dogs
# Format: in vivo, beagle dogs
# Condition: dog, in vivo, po; beagle dogs, gavage 20 mg/kg, suspension in 0.5% HPMC K4M
# Procedure: The crystal form A of the p-tosylate of the compound was fully suspended in an aqueous solution of 0.5% HPMC (hydroxypropylmethyl cellulose) K4M, and then administered to beagle dogs by gavage at a dosage of 20 mg/kg and a dose volume of 5 mL/kg, with three dogs in each parallel experiment. The amount of the compound was fully converted into the amount of an equivalent free base.
Quantity: half-life (h)
Respond numerically; units are h and should not be typed.

So for C[C@@H]1COC2NC=NC=C2c2cc(C(=O)Nc3ccc(OC(F)(F)Cl)cc3)cc3nc(C(F)F)n1c23 (stereo partly shown) [Crystal form A of p-tosylate] , the logged half-life turned out to be 5.58
